# Tested on: Calu-3
# test: cell viability relative to DMSO; higher = less toxic
# condition.label: 72 h; 10 nM
Each entry below carries its reported cell viability.
Phrase the answer as number then unit, nothing more needed.

Known cell viability results, listed for orientation:
CCCCCCCCCCCCCCCCO [1-hexadecanol] : 95.5%
O=C(NOCCO)c1cc(CN2OCCCC2=O)c(F)c(F)c1Nc1ccc(I)cc1F : 92.1%
CCO[C@@H](Cc1ccc(OCCn2c(C)ccc2-c2ccc(SC)cc2)cc1)C(=O)O [saroglitazar] : 80.3%
Cc1nnc2ccc(-c3cccc(C(F)(F)F)c3)nn12 : 111%

Here CC1(C)O[C@H]2CC(=O)OC[C@]23[C@H]2CC[C@@]4(C)[C@H](c5ccoc5)OC(=O)[C@H]5O[C@]54[C@]2(C)C(=O)C[C@@H]13 [limonin] was tested on Calu-3, and its cell viability came to 89.5%

Here CCCCCCOc1nsnc1C1=CCCN(C)C1 [xanomeline] was tested on Calu-3, and its cell viability came to 115%

Here CN(C)CCOC(C)(c1ccccc1)c1ccccn1 (configuration not stated) [doxylamine] was tested on Calu-3, and its cell viability came to 105%

Here `Cn1cccc1/C=C1\C(=O)NC(=O)c2ccccc21` was tested on Calu-3, and its cell viability came to 97.5%

Here `Cc1ccc([N+](=O)[O-])cc1S(=O)(=O)N(C)C` was tested on Calu-3, and its cell viability came to 92.8%

Here NC/C(=C/F)CCc1ccc(F)cc1 [mofegiline] was tested on Calu-3, and its cell viability came to 97.7%

Here CC(C)=CCC[C@](C)(O)[C@H]1CC[C@]2(C)[C@@H]1[C@H](O)C[C@@H]1[C@@]3(C)CC[C@H](O)C(C)(C)[C@@H]3[C@@H](O)C[C@]12C [hemomex-s] was tested on Calu-3, and its cell viability came to 109%

Here CCOC(=O)COc1ccc2c(=O)cc(-c3ccccc3)oc2c1 [efloxate] was tested on Calu-3, and its cell viability came to 98.9%

Here CN(c1nccc(=O)[nH]1)C1CCN(c2nc3ccccc3n2Cc2ccc(F)cc2)CC1 [mizolastine] was tested on Calu-3, and its cell viability came to 104%

Here O=C1c2ccccc2C(=O)c2ccccc21 [anthraquinone] was tested on Calu-3, and its cell viability came to 97.4%

Here CCOC(=O)c1ccc(N2NC(=O)/C(=C/c3ccc([N+](=O)[O-])o3)C2=O)cc1 [PYR-41] was tested on Calu-3, and its cell viability came to 101%

Here O=C(O)c1cc(O)c2ccc(Cl)cc2n1 [7-chlorokynurenic-acid] was tested on Calu-3, and its cell viability came to 94.1%

Here O=C(O)c1cccc(-c2noc(-c3ccccc3F)n2)c1 [ataluren] was tested on Calu-3, and its cell viability came to 89.7%

Here CN(CCOc1ccc(CC2SC(=O)NC2=O)cc1)c1ccccn1 (configuration not stated) [rosiglitazone] was tested on Calu-3, and its cell viability came to 96.2%

###

# Tested on: U2OS
# test: cell viability relative to DMSO; higher = less toxic
# condition.label: 72 h; 100 nM
Each entry below carries its reported cell viability.
Number only, in %; omit the unit.

Known cell viability results, listed for orientation:
Cn1nnc(-c2ccc(-c3ccc(N4C[C@H](CO)OC4=O)cc3F)cn2)n1 : 96.7
CCCCCCCCCCCCCCCCNc1ccc(C(=O)O)cc1 : 102

We next turn to a different molecule, shown below.
For `FC(F)(F)c1ccc(CNc2ccc(Cc3c[nH]c4ncccc34)cn2)cc1` the molecule record lists cell viability as 101

###

# Test system: Caco-2
# test: cell viability relative to DMSO; higher = less toxic
# condition.label: 72 h; 1000 nM
endpoint: cell viability (%)
Number only, in %; omit the unit.

Known cell viability results, listed for orientation:
O=C(Oc1cc(S(=O)(=O)c2ccccc2)ccc1[N+](=O)[O-])c1ccc(Cl)cc1 : 87.5
CC(=O)Nc1cccc(-n2c(=O)n(C3CC3)c(=O)c3c(Nc4ccc(I)cc4F)n(C)c(=O)c(C)c32)c1 [trametinib] : 21.3
C/C(=C\c1csc(C)n1)[C@@H]1C[C@@H]2O[C@]2(C)CCC[C@H](C)[C@H](O)[C@@H](C)C(=O)C(C)(C)[C@@H](O)CC(=O)N1 [ixabepilone] : 48.8
Nc1ncnc2c1ncn2[C@@H]1O[C@@H]2COP(=O)(O)O[C@H]2[C@H]1O [cyclic-AMP] : 93.5
C[C@@H]1Cc2c([nH]c3ccccc23)[C@@H](c2c(F)cc(/C=C/C(=O)O)cc2F)N1CC(C)(C)F [AZD9496] : 94.7

Here c1nc(CC2CCNCC2)c[nH]1 [immepip] was tested on Caco-2, and its cell viability came to 98.8

Here CCCCCCOc1nsnc1C1=CCCN(C)C1 [xanomeline] was tested on Caco-2, and its cell viability came to 92.3

Here CCOc1nc2cccc(C(=O)OCc3oc(=O)oc3C)c2n1Cc1ccc(-c2ccccc2-c2noc(=O)[nH]2)cc1 [azilsartan-medoxomil] was tested on Caco-2, and its cell viability came to 107

Here Cc1cc(O)c2c(=O)c3c(O)cc(O)c4c5c(O)cc(O)c6c(=O)c7c(O)cc(C)c8c1c2c(c34)c(c78)c65 [hypericin] was tested on Caco-2, and its cell viability came to 99.4

Here CCc1cc2c(cc1CC)CC(NC[C@H](O)c1ccc(O)c3[nH]c(=O)ccc13)C2 [indacaterol] was tested on Caco-2, and its cell viability came to 94.8

Here `Cc1ccccc1/N=N/c1ccc(NC(=O)c2ccnn2C)c(C)c1` was tested on Caco-2, and its cell viability came to 93.8

Here `O=c1cc(N2CCOCC2)oc2c(-c3ccccc3)cccc12` was tested on Caco-2, and its cell viability came to 96.5

Here O=C(O)c1ccccc1NC(=O)N1CCC(c2ccccc2C(F)(F)F)CC1 [A-1120] was tested on Caco-2, and its cell viability came to 96.8

Here O=C1Nc2ccccc2C12OCC1(CO2)COC2(OC1)C(=O)Nc1ccccc12 (stereo not given) [JW-67] was tested on Caco-2, and its cell viability came to 93.2

Here Cc1ccc(C(=O)Nc2cccc(C(F)(F)F)c2)cc1Nc1nc(-c2cccnc2)nc2c1cnn2C [NVP-BHG712] was tested on Caco-2, and its cell viability came to 96.6

Here COc1ccc(CCN(C)CCCC(C#N)(c2cc(OC)c(OC)c(OC)c2)C(C)C)cc1OC (stereo not given) [gallopamil] was tested on Caco-2, and its cell viability came to 91.6

Here Oc1c(I)cc(Cl)c2cccnc12 [clioquinol] was tested on Caco-2, and its cell viability came to 99.7

Here CS(=O)(=O)c1ccc(Cn2c3c(c4cc(F)cc(F)c42)CCCC3CC(=O)O)cc1 (stereo not given) was tested on Caco-2, and its cell viability came to 96

Here CC[C@@]1([C@H]2O[C@H]([C@H]3O[C@@](O)(CO)[C@H](C)C[C@@H]3C)C[C@H]2C)CC[C@H]([C@@]2(C)CC[C@]3(C[C@H](O)[C@@H](C)[C@@H]([C@H](C)[C@H](OC)[C@@H](C)C(=O)O)O3)O2)O1 [MONENSIN SODIUM] was tested on Caco-2, and its cell viability came to 56.9

Here COc1ccc(CCN)cc1OC [homoveratrylamine] was tested on Caco-2, and its cell viability came to 79.4

Here Oc1c(I)cc(I)c(O)c1I [riodoxol] was tested on Caco-2, and its cell viability came to 93.5

Here Oc1ccc(OCc2ccccc2)cc1 [monobenzone] was tested on Caco-2, and its cell viability came to 107

Here COc1cn(-c2ccc(-n3cccn3)cc2F)nc(-c2ccnn2-c2ccccc2)c1=O [TAK-063] was tested on Caco-2, and its cell viability came to 97.4

Here C[N+](C)(C)NCCC(=O)O [meldonium] was tested on Caco-2, and its cell viability came to 92

Here CCCn1c(=O)c2[nH]c(-c3cnn(Cc4cccc(C(F)(F)F)c4)c3)nc2n(CC)c1=O [GS-6201] was tested on Caco-2, and its cell viability came to 108

Here CC(C)=CCC[C@](C)(O)[C@H]1CC[C@]2(C)[C@@H]1[C@H](O)C[C@@H]1[C@@]3(C)CC[C@H](O)C(C)(C)[C@@H]3[C@@H](O)C[C@]12C [hemomex-s] was tested on Caco-2, and its cell viability came to 111

Here Cn1c(NCCN(CCO)CCCc2ccc([N+](=O)[O-])cc2)cc(=O)n(C)c1=O [nifekalant] was tested on Caco-2, and its cell viability came to 90.8

Here Nc1ncnc2nc(-c3ccc(N4CCOCC4)nc3)cc(-c3cccc(Br)c3)c12 [ABT-702] was tested on Caco-2, and its cell viability came to 104

Here CC1OC2(CS1)CN1CCC2CC1 (stereo not given) [cevimeline] was tested on Caco-2, and its cell viability came to 91

Here C#C[C@]1(O)CC[C@H]2[C@@H]3CCC4=C(CCC(=O)C4)[C@H]3CC[C@@]21C [noretynodrel] was tested on Caco-2, and its cell viability came to 96.1

###

Each entry below carries its reported cell viability.
# Test system: Caco-2
# test: cell viability relative to DMSO; higher = less toxic
# condition.label: 72 h; 100 nM
Number only, in %; omit the unit.

COc1cn(-c2ccc(-n3cccn3)cc2F)nc(-c2ccnn2-c2ccccc2)c1=O : 91.1

For c1nc(CC2CCNCC2)c[nH]1 [immepip] the molecule record lists cell viability as 98.6

For `CC1=C(/C=C/C(C)=C/C=C/C(C)=C/C=O)C(C)(C)CCC1` the molecule record lists cell viability as 89.5

Hello, the source for this data is the supplement of paper PMC13380429, in case you need it.
